- experiment-notes: NCI Yeast Anticancer Drug Screen. Data for the mlh1 rad18 strain (AID 175)
- test-settings: S. cerevisiae mlh1 rad18 strain growth inhibition; at 50.0 µM
About 79,000 compounds went through this panel and 15% of them were active in at least one assay; those are over-represented in the sample as a whole. Calls of active or inactive are those of the source. Rule as the data show it: active = growth inhibition above about 70%; inactive = the rest.
Possible outcomes: active, inactive

# molecule, category-label
data = [
    ("c1cnc2c(c1)ccc1cccnc12", "active"),
    ("COC1/C=C\\C=C(/C)C(=O)NC2=CC(=O)C(NCCCl)=C(CC(C)CC(OC)C(O)C(C)/C=C(/C)C1OC(N)=O)C2=O (configuration not stated)", "active"),
    ("O=C(C1C(c2ccccc2)N1C(c1ccccc1)c1ccccc1)C1C(c2ccccc2)N1C(c1ccccc1)c1ccccc1 (configuration not stated)", "active"),
    ("COC(=O)C1=C(C)NC(=S)NC1c1ccc(N(CCCl)CCCl)cc1Cl (configuration not stated)", "active"),
    ("CCCC[CH2][Pb]([CH2]CCCC)([CH2]CCCC)[O]C(C)=O", "active"),
    ("[CH3][Sn]([Br])([Br])[CH2]CCCBr", "active"),
    ("CCCCCCCCCCCC(=O)[O][Hg][c]1ccccc1", "active"),
    ("COC(=O)C1=C(C(=O)OC)[C]([Hg][CH3])(C(C)=O)N=N1 (configuration not stated)", "active"),
    ("CCC[CH2][Sn]1([CH2]CCC)[O]CC(CN(C)Cc2ccccc2)[O]1 (configuration not stated)", "active"),
    ("OC1(c2ccccc2)CC2CCC(C1)N2CCCC(O)(c1ccccc1)c1ccccc1 (configuration not stated)", "inactive"),
    ("CN1CC(Br)(Br)C(=O)N(C)C1=O", "active"),
    ("Br[Se]c1ccccn1", "active"),
    ("CCCCCCCCCCCCN1CC1", "inactive"),
    ("O=c1c(O)c(-c2ccccc2)oc2ccccc12.[Pb]", "active"),
    ("O=[N+]([O-])c1ccccc1", "inactive"),
    ("Cc1cc(O)c2c(c1)C(=O)C13C(=C2O)C(=O)C2C(O)C1C1C(O)C3C(=O)C3=C(O)c4c(O)cc(C)cc4C(=O)C321 (configuration not stated)", "inactive"),
    ("OC(c1ccc(Cl)cc1)C(Cl)(Cl)Cl (configuration not stated)", "active"),
    ("FC(F)(F)c1cccc(CCl)c1", "inactive"),
    ("C[C@]12CC[C@H](OC(=O)COc3ccc(N(CCCl)CCCl)cc3)C[C@@H]1CC[C@@H]1[C@@H]2CC[C@]2(C)NC(=O)CC[C@@H]12", "inactive"),
    ("CCC[CH2][Sn]([N]=C=S)([N]=C=S)[N]=C=S.O=P(c1ccccc1)(c1ccccc1)c1ccccc1.O=P(c1ccccc1)(c1ccccc1)c1ccccc1", "active"),
    ("Oc1cccc2nc3ccccc3nc12", "inactive"),
    ("ClC1=NSSC1(Cl)Cl", "active"),
]
